# MEASUREMENT TARGET: UniProtKB P07824
# Sequence (P07824 whole entry): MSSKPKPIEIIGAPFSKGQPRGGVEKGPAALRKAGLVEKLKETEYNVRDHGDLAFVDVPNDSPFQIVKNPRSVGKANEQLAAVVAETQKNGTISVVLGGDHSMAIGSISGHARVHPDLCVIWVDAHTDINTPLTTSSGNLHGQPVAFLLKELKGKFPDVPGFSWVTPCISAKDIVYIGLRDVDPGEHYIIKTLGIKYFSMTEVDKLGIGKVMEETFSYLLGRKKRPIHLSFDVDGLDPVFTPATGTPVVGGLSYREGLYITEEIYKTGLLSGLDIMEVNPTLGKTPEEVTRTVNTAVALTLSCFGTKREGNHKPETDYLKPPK
ASSAY METRIC: pKd
Numbers only, as −log10 of the molar value.

query: Return reported pKd for target or system UniProtKB P07824, item NC(CCCCC(=O)O)C(=O)O (stereo unspecified) .
result: 1.52

---

# MEASUREMENT TARGET: 3',5'-cyclic-AMP phosphodiesterase 4B (Homo sapiens, UniProt Q07343)
# Sequence (Q07343 whole entry): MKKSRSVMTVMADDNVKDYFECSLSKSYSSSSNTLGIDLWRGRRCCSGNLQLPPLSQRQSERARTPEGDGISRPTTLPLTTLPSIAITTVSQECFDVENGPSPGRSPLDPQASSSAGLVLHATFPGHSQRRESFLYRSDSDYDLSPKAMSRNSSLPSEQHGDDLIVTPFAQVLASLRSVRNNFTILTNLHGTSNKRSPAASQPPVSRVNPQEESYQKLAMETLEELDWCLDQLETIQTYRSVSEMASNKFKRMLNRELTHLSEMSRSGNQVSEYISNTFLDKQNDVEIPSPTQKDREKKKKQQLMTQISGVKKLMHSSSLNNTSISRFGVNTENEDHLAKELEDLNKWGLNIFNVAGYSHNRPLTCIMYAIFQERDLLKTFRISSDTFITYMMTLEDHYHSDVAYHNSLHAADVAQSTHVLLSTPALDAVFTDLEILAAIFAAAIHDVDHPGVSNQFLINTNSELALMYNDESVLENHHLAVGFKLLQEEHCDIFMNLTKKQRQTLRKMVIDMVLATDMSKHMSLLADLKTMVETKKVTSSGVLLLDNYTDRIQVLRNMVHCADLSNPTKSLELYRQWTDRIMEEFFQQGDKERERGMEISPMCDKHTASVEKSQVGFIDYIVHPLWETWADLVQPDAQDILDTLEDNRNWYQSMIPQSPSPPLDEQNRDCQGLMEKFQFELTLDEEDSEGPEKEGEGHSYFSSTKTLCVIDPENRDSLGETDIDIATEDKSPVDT
pIC50: −log10 of the molar value.
Hi, to clarify the labels: criterion met covers pIC50 from 7 upward, criterion not met covers anything below 7.

COMPOUND	DISCRETE LABEL
CCOC(=O)c1ccc(Oc2ccc3c(c2)COB3O)nc1	criterion met
CCOc1nc(-c2cncc(C3COB(O)C3)c2)c(F)cc1OC (stereo unspecified)	criterion met
N#Cc1ccc(Oc2ccc3c(c2)COB3O)cc1C#N	criterion met
CC(=O)OCCOc1cc(Oc2ccc3c(c2)COB3O)ccc1C#N	criterion met

Query compound follows.
query: Would you say `N#Cc1ccc(Oc2ccc3c(c2)COB3O)nc1` shows pIC50 at minimum 7?
result: criterion not met

---

# ASSAY NOTES: Inhibition of Escherichia coli VIM-2
ASSAY METRIC: IC50 (nM)
Give bare numbers, in nM.

COMPOUND STRING	IC50 (nM)
O=C(O)c1cccc2c1OB(O)[C@@H](NC(=O)C1CCCCC1)C2	51

From here, focus on the item given below.
query: Specify measured IC50 for `NCCN[C@H]1CC[C@H](CC(=O)N[C@H]2Cc3cccc(C(=O)O)c3OB2O)CC1` .
result: 0.5

---

# ASSAY NOTES: Inhibition of beta-lactamase TEM-1 (unknown origin)
# Parameters: species or system Bacteria
ASSAY METRIC: IC50 (µM)
Answers are plain numbers, in µM.

query: Query IC50 for `CC(=O)N[C@H]1Cc2cccc(C(=O)O)c2OB1O`
result: 0.013
